- Subject Of Test: human δ opioid receptor (OPRD1) (Homo sapiens, UniProt P41143)
- Sequence (P41143 whole entry): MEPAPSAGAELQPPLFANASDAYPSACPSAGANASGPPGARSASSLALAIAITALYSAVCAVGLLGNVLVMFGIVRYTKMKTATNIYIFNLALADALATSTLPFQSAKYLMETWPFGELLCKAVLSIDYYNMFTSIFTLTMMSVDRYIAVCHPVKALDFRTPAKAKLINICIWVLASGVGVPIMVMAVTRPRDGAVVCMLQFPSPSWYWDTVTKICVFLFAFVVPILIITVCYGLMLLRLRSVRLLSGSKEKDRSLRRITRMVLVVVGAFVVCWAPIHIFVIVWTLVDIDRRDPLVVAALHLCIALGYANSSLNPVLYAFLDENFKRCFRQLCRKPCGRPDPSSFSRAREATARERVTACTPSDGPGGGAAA
- Assay Text: cell-based
- Format: cell-based
pEC50: −log10 of the molar value.
Reported pEC50 by item:
Property Measured: pEC50

test_smiles=O=S(=O)(Nc1cccc(N2C3CCC2CN(CCCc2ccccc2)C3)c1)C1CC1 subject_of_test="human δ opioid receptor (OPRD1) (Homo sapiens, UniProt P41143)" property_measured=pEC50 numeric_value=8.80
test_smiles=NC(=O)c1cccc(N2C3CCC2CN(CCCc2ccccc2)C3)c1F subject_of_test="human δ opioid receptor (OPRD1) (Homo sapiens, UniProt P41143)" property_measured=pEC50 numeric_value=7.89
test_smiles=NC(=O)c1cc(N2C3CCC2CN(CCCc2ccccc2)C3)ccc1O subject_of_test="human δ opioid receptor (OPRD1) (Homo sapiens, UniProt P41143)" property_measured=pEC50 numeric_value=7.80
test_smiles=Nc1cccc(N2C3CCC2CN(CCCc2ccccc2)C3)c1 subject_of_test="human δ opioid receptor (OPRD1) (Homo sapiens, UniProt P41143)" property_measured=pEC50 numeric_value=8.80
test_smiles=NC(=O)c1cc(N2C3CCC2CN(CCCc2ccccc2)C3)ccc1F subject_of_test="human δ opioid receptor (OPRD1) (Homo sapiens, UniProt P41143)" property_measured=pEC50 numeric_value=6.80

---

Parameter: half-life. Scope: all listed entries.
- Assay Text: in vitro
- Experimental Context: mouse, microsomes
Property Measured: half-life (min)

test_smiles=NC(=O)c1cc(N2C3CCC2CN(CCCc2ccccc2)C3)ccc1O property_measured=half-life numeric_value=2.1
test_smiles=Oc1cc(F)cc(N2C3CCC2CN(CCCc2ccccc2)C3)c1 property_measured=half-life numeric_value=3.3
test_smiles=O=S(=O)(Nc1cccc(N2C3CCC2CN(CCCc2ccccc2)C3)c1)C1CC1 property_measured=half-life numeric_value=6.4
test_smiles=NC(=O)c1cccc(N2C3CCC2CN(CCCc2ccccc2)C3)c1 property_measured=half-life numeric_value=14.2
test_smiles=Nc1cccc(N2C3CCC2CN(CCCc2ccccc2)C3)c1 property_measured=half-life numeric_value=3.5

---

- Subject Of Test: human μ opioid receptor β-arrestin-2 (Homo sapiens)
- Sequence (P35372 whole entry): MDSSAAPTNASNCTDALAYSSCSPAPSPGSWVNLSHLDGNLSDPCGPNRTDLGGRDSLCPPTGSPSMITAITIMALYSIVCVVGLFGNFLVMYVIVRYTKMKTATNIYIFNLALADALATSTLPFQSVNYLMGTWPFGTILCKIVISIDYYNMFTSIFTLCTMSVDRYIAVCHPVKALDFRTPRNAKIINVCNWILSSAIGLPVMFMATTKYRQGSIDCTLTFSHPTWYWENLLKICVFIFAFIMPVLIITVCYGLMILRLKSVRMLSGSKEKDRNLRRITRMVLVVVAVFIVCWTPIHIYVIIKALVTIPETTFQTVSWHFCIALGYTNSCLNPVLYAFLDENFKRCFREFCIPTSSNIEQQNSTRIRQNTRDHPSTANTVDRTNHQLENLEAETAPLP
- Assay Text: cell-based
Recorded measurements of EC50, one per entry
Property Measured: EC50

compound="NC(=O)c1cc(N2C3CCC2CN(CCCc2ccccc2)C3)ccc1O [Compound 16]" subject_of_test="human μ opioid receptor β-arrestin-2 (Homo sapiens)" result="> 10 µM"
compound="O=S(=O)(Nc1cccc(N2C3CCC2CN(CCCc2ccccc2)C3)c1)C1CC1 [Compound 12]" subject_of_test="human μ opioid receptor β-arrestin-2 (Homo sapiens)" result="0.025 µM"
compound="Oc1ccc(N2C3CCC2CN(CCCc2ccccc2)C3)cc1 [Compound 1]" subject_of_test="human μ opioid receptor β-arrestin-2 (Homo sapiens)" result="> 10 µM"
compound="NC(=O)c1cccc(N2C3CCC2CN(CCCc2ccccc2)C3)c1F [Compound 19]" subject_of_test="human μ opioid receptor β-arrestin-2 (Homo sapiens)" result="> 10 µM"
compound="O=[N+]([O-])c1cccc(N2C3CCC2CN(CCCc2ccccc2)C3)c1 [Compound 10]" subject_of_test="human μ opioid receptor β-arrestin-2 (Homo sapiens)" result="> 10 µM"

---

- Subject Of Test: nociceptin receptor (OPRL1) (Homo sapiens)
- Sequence (P41146 whole entry): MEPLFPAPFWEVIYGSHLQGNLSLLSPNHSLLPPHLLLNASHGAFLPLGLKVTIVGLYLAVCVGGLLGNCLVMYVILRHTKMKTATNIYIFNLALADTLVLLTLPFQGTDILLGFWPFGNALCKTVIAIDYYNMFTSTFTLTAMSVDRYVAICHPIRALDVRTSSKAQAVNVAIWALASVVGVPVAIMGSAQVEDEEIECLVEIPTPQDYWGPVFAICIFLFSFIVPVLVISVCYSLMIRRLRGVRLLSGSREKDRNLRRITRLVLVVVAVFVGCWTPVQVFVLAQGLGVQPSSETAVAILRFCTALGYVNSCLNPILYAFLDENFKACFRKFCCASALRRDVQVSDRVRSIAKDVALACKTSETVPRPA
- Assay Text: cell-based
- Type: cell-based
- Experimental Context: NOR cAMP EC50 (nM)
Recorded EC50, one value per entry.
Property Measured: EC50 (nM)

test_smiles=NC(=O)c1cccc(N2C3CCC2CN(CCCc2ccccc2)C3)c1F property_measured=EC50 units_text=nM censoring_qualifier== numeric_value=3.2
test_smiles=Nc1cccc(N2C3CCC2CN(CCCc2ccccc2)C3)c1 property_measured=EC50 units_text=nM censoring_qualifier=> numeric_value=10000
test_smiles=O=S(=O)(Nc1cccc(N2C3CCC2CN(CCCc2ccccc2)C3)c1)C1CC1 property_measured=EC50 units_text=nM censoring_qualifier=> numeric_value=10000
test_smiles=NC(=O)c1cc(N2C3CCC2CN(CCCc2ccccc2)C3)ccc1F property_measured=EC50 units_text=nM censoring_qualifier== numeric_value=25
test_smiles=NC(=O)c1cc(N2C3CCC2CN(CCCc2ccccc2)C3)ccc1O property_measured=EC50 units_text=nM censoring_qualifier=> numeric_value=10000
